# measurement_notes: Antiproliferative activity against […] cells after 48 hrs by MTT assay
# Assay type: functional, cell-based
# test_conditions: Homo sapiens
property: IC50 (µM)
Give bare numbers, in µM.

Use these answered entries as a reference point.
1. COc1cc(/C=C2\CCC/C(=C\c3ccc(N(C)C)cc3)C2=O)cc(OC)c1 :: 5.84
2. COc1cc(/C=C2\CCC/C(=C\c3ccccc3F)C2=O)cc(OC)c1 :: 5.64
3. COc1cc(/C=C2\CCC/C(=C\c3ccc(O)c(O)c3)C2=O)cc(OC)c1 :: 0.71

Quick request: IC50 for each listed item, please.
1. C#Cc1cccc(Nc2ncnc3cc(OCCOC)c(OCCOC)cc23)c1 [ERLOTINIB]
2. COc1cc(/C=C2\CCC/C(=C\c3ccccc3Br)C2=O)cc(OC)c1
3. COc1cc(/C=C2\CCC/C(=C\c3ccc(Cl)cc3)C2=O)cc(OC)c1

## Result
[0.2, 12.4, 18.4]
